Target: T1, Human 41BB antigen (BLI) (human, UniProt Q07011 24-183)
T1 construct: also called 41BB protein
T1 sequence (Q07011 24-183 limits assumed): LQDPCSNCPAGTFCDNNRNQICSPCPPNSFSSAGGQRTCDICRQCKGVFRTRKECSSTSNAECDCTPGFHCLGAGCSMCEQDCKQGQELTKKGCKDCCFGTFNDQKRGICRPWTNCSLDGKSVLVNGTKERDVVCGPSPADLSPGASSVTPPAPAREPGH
Assay: BLI, VHH-His on anti-His tips, human 41BB in solution;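 also: association tracked for 200 s, after which dissociation was followed in 1×PBS free of 41BB protein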
metric: koff (s⁻¹)

These solved cases illustrate the format of a correct answer.
q: Recorded koff of 4-1BB-36 (VHH, not shown: small tags and cut ends) VHH: EVQLVESGGGLVQPGGSLRLSCAASRRTFSSYTAGWFRQAPGKEREFVASIRWISGTTTYADSVNGRFTISRDIAKNTVYLQMNSLKPDDTAVYYCAVDLSSDNDYDYWGQGTQVTVSS , please.
a: 0.00919

q: Quick one: 4-1BB-59 (VHH, not shown: small tags and cut ends) VHH: EVQLVESGGGLVQPGESLRLSCAASGDTVSGYVMLWWRQAPGKERELVAAISSVGYTYYTDSVKGRFTISRDNAKNTVYLQMNSLKPEDTAVYYCAADPASISTRSAYWGQGTQVTVSS
a: 0.00121

q: Moving on to 4-1BB-1 (VHH, not shown: small tags and cut ends) VHH: QVQLVESGGGLVQAGGSLRLSCAASENIFSFNAMAWYRQAPGKQRELVALITGDGTTKYADSVKGRFTIARLNAKNTVNLEMNSLKPEDTAVYTCAALRNSDRTSWGQGTQVTVSS
a: 0.00264

q: And what about the binder 4-1BB-2 (VHH, not shown: small tags and cut ends) VHH: QVQLVESGGGLVQAGGSLRLSCAASGSIFSYNAMAWYRQAPGKQRELVALITSDRTTKYADSVKGRFTISRDDTKNTVDLEMNSLKPEDTAVYTCAALLNSARTSWGQGTQVTVSS ?
a: 0.00252

I = 4-1BB-3 (VHH, not shown: small tags and cut ends) VHH: EVQLVESGGGLVQAGGSLRLSCAASGNIFSYNGMAWYRQAPGNQRELVAVVAIDGTAKYADTVKGRFTISRDNIKNTVNLEMNSLKPEDTAVYTCAALRNSGSTSWGQGTQVTVSS
II = 4-1BB-56 (VHH, not shown: small tags and cut ends) VHH: QVQLVESGGGLVQTGGSLRLSCAASGRISTIDTMFWYRQTPGKERDWVAFIPKDGLPTYVDSVKGRFTVSRDNARNTVYLQMNGLKPEDTAVYYCAVDVQEDRMRTYWGQGTQVTVSS
III = 4-1BB-9 (VHH, not shown: small tags and cut ends) VHH: QVQLVESGGGLVQAGGSLRLSCAASGSIFSYNAVAWYRQAPGKQRELVAVITSGGETTKYADSVKGRFTISRDITKNAVDLQMVSLKPEDTAVYTCAALRNSGSTSWGQGTQVTVSS
q: Falling order of koff, please. I would appreciate it if you listed the labels in the requested order.
a: III, I, II

Data provenance is patent US20250376535A1.
